system: Sheep red blood cells; assay type: cell-based; conditions: red cells of sheep, 1 h, 64 μg mL^−1
Bridge positions count the residues as written; N and C are the ends. Square brackets hold non-standard residues; d marks the D form. Peptide text beside a SMILES is read from it. * marks the point of attachment. Myristoyl = CCCCCCCCCCCCCC(=O)*; dOrn = NCCC[C@@H](N)C(=O)O; Orn = NCCC[C@H](N)C(=O)O
Metric: % Hemolytic activity, sheep red blood cells (%)
// return numeric value only (unit: %, not printed)

CCCCCCCCCCCCCC(=O)N[C@H](CC(N)=O)C(=O)N[C@H](Cc1ccc(O)cc1)C(=O)N[C@H](Cc1c[nH]c2ccccc12)C(=O)N[C@H](CCCN)C(=O)N[C@@H](CCCN)C(=O)NCC(=O)N[C@H](CCCN)C(=O)N[C@@H](Cc1c[nH]c2ccccc12)C(=O)N[C@@H]1C(=O)N[C@@H]([C@@H](C)CC)C(=O)NCC(=O)N[C@@H](CO)C(=O)O[C@@H]1C [Compound 16] (Myristoyl-[dN][dY][dW][dOrn][Orn]G[dOrn]WTIGS; ester 9-C)	18.0

The record that follows has no % Hemolytic activity, sheep red blood cells shown yet.
q: Find % Hemolytic activity, sheep red blood cells (Sheep red blood cells) for the entry CC[C@H](C)[C@@H]1NC(=O)[C@@H](NC(=O)[C@H](Cc2c[nH]c3ccccc23)NC(=O)[C@@H](CCCN)NC(=O)CNC(=O)[C@H](CCCN)NC(=O)[C@@H](CCCN)NC(=O)[C@@H](Cc2c[nH]c3ccccc23)NC(=O)[C@@H](Cc2ccc(O)cc2)NC(=O)[C@@H](CO)NC(C)=O)[C@@H](C)OC(=O)CNC(=O)CNC(=O)[C@H](CC(N)=O)NC1=O [Compound 19] (Ac-[dS][dY][dW][dOrn][Orn]G[dOrn]WTINGG; ester 9-C)
a: 0.2
